assay-system: Melanin-concentrating hormone receptor 1 (Homo sapiens)
Sequence (Q99705 whole entry): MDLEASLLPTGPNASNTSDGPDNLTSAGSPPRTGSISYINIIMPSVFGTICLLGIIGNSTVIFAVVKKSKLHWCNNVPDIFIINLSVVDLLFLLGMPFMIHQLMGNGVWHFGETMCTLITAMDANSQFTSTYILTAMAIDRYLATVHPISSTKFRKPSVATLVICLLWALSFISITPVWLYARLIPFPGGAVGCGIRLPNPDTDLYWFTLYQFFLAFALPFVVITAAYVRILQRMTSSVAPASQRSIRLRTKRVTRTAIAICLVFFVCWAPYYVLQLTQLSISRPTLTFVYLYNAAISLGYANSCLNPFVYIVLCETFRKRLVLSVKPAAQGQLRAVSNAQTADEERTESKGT
protocol-details: Antagonist activity at MCHR1 (unknown origin) assessed as IP3 levels by cell-based functional assay
Items are presented alongside their recorded pIC50.
Reminder that pIC50 means the negative base-10 logarithm of the concentration expressed in mol/L.

The cases that follow already have their pIC50 on record.
CC(=O)Nc1cccc(C2CCN(Cc3ccc(C(=O)c4nc5ccccc5n4-c4ccc(F)cc4)cc3Cl)CC2)c1    6.47
CC(=O)Nc1cccc(C2CCN(Cc3ccc(Cc4nc5ccccc5n4-c4ccc(F)cc4)cc3)CC2)c1    8.52
CC(=O)Nc1cccc(C2CCN(Cc3ccc(C(=O)c4nc5cnccc5n4-c4ccc(F)cc4)cc3)CC2)c1    7.23
CC(=O)Nc1cccc(C2CCN(Cc3ccc(C(=O)c4nc5cccnc5n4-c4ccc(F)cc4)cc3)CC2)c1    7.28
CC(=O)Nc1cccc(C2CCN(Cc3ccc(C(=O)c4nc5ccccc5n4C(C)C)cc3)CC2)c1    6.88

Input: Indicate the recorded pIC50 value for this compound: CC(=O)Nc1cccc(C2CCN(Cc3ccc(Cc4nc5ccccc5n4-c4ccc(F)cc4)cc3C#N)CC2)c1
Output: 8.52

Input: Indicate the recorded pIC50 value for this compound: CC(=O)Nc1cccc(C2CCN(Cc3ccc(Oc4nc5ccccc5n4-c4ccc(F)cc4)cc3)CC2)c1
Output: 7.28

###

assay-system: Voltage-gated inwardly rectifying potassium channel KCNH2 (Homo sapiens, UniProt Q12809)
Sequence (Q12809 whole entry): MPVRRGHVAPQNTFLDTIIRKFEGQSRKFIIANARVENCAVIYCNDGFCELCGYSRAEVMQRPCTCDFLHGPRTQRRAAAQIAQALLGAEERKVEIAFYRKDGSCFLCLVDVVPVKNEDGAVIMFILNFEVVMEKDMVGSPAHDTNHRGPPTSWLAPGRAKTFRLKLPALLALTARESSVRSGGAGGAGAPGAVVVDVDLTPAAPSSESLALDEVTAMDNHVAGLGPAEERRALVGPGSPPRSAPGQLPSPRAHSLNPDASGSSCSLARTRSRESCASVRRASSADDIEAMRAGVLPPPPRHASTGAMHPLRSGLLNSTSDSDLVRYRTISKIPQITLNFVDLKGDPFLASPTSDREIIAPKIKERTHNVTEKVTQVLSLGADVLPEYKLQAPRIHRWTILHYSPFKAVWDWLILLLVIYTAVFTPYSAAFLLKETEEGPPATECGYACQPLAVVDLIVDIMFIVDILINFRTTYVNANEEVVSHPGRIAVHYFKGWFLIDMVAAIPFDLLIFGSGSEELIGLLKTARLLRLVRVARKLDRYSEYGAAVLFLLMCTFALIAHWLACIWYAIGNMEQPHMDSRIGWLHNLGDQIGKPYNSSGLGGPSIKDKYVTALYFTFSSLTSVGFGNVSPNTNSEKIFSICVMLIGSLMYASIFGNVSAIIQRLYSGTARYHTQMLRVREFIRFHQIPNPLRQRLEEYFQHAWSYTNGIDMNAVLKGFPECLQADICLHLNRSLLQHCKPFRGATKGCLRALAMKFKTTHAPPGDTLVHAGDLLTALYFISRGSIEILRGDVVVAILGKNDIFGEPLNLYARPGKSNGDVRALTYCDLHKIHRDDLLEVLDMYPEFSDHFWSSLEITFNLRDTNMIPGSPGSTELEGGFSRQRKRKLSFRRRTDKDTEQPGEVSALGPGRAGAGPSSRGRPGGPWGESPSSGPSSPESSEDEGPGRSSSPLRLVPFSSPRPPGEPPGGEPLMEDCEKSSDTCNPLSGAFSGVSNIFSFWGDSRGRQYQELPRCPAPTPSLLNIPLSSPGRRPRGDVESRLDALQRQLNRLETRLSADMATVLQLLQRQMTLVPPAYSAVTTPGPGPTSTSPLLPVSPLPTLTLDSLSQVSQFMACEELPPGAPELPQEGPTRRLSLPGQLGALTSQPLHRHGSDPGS
protocol-details: Inhibition of human ERG expressed in HEK293 cells after 5 mins by patch clamp assay
Items are presented alongside their recorded IC50.
Number in nM, nothing else.

The cases that follow already have their IC50 on record.
CC(=O)Nc1cccc(C2CCN(Cc3ccc(C(=O)c4nc(C)c(C)n4-c4ccc(F)cc4)cc3)CC2)c1    1700
CC(=O)Nc1cccc(C2CCN(Cc3ccc(C(=O)c4nc5ccccc5n4-c4ccc(Cl)cc4)cc3)CC2)c1    1700

# evaluate next
Input: Indicate the recorded IC50 value for this compound: CC(=O)Nc1cccc(C2CCN(Cc3ccc(C(=O)c4nc5ccccc5n4C4CCOCC4)cc3)CC2)c1
Output: 1200

###

assay-system: UniProt Q12809
protocol-details: Inhibition of human ERG expressed in HEK293 cells at 1 uM after 5 mins by patch clamp assay
Format: cell-based
measurement-context: HEK293 cells that express hERG
metric: inhibition at 5 min, 1 µM (%)
Number in %, nothing else.

The cases that follow already have their inhibition at 5 min, 1 µM on record.
CC(=O)Nc1cccc(C2CCN(Cc3ccc(C(=O)c4nc5cccnc5n4-c4ccc(F)cc4)cc3)CC2)c1    58
CC(=O)Nc1cccc(C2CCN(Cc3ccc(Cc4nc5ccccc5n4-c4ccc(F)cc4)cc3C#N)CC2)c1    42
CC(=O)Nc1cccc(C2CCN(Cc3ccc(Oc4nc5ccccc5n4-c4ccc(F)cc4)cc3)CC2)c1    80
CC(=O)Nc1cccc(C2CCN(Cc3ccc(C(=O)c4nc5cnccc5n4-c4ccc(F)cc4)cc3)CC2)c1    36
CC(=O)Nc1cccc(C2CCN(Cc3ccc(C(=O)c4nc5ccccc5n4-c4ccc(F)cc4)nc3)CC2)c1    37

Input: Indicate the recorded inhibition at 5 min, 1 µM value for this molecule: CC(=O)Nc1cccc(C2CCN(Cc3ccc(C(=O)c4nc5c(F)cc(F)cc5n4-c4ccc(F)cc4)cc3)CC2)c1
Output: 70

Input: Indicate the recorded inhibition at 5 min, 1 µM value for this molecule: CC(=O)Nc1cccc(C2CCN(Cc3ccc(Cc4nc5ccccc5n4-c4ccc(F)cc4)cc3)CC2)c1
Output: 98

Input: Indicate the recorded inhibition at 5 min, 1 µM value for this molecule: CC(=O)Nc1cccc(C2CCN(Cc3ccc(C(=O)c4nc5ccccc5n4-c4ccc(F)cc4)cn3)CC2)c1
Output: 27
